Target: SHP2-C SH2;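 note: peptide library displayed on the E. coli surface as eCPX fusions, selected cells deep-sequenced, score is each peptide's frequency after selection divided by its frequency in the input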
Assay: SH2 binding enrichment of the phosphorylated peptide, bacterial display (enrichment ratio); higher = better substrate or ligand; peptides without Tyr show the background
Classification field: enter met for SH2 binding enrichment values not below 0.8, not met for values below it.

>  <residueSequence>
QPEDIYHQTWA [GBA_Y244_G241E]

>  <group>
met

$$$$
>  <residueSequence>
AAGGRYFGLVG [HARS1_Y363_D364Y_YF]

>  <group>
met

$$$$
>  <residueSequence>
EPGNLYIAKVE [CNTN4_Y180_T176P]

>  <group>
not met

$$$$
>  <residueSequence>
TGDFGYRTPGY [TNS2_Y668_A670T]

>  <group>
met

$$$$
>  <residueSequence>
PLQNTYNFNVL [SLC4A1_Y553_K551N_YF]

>  <group>
met

$$$$
>  <residueSequence>
SLNEGYAKDFD [FBP1_Y216_R218K]

>  <group>
met

$$$$
>  <residueSequence>
DFDNLYFWDQD [ERBB2_Y1221_A1216D_YF]

>  <group>
met

$$$$
>  <residueSequence>
KTNVSYCGALD [CACNB4_Y103]

>  <group>
not met

$$$$
>  <residueSequence>
DEEPPHRGPFC [SASH1_Y551_Y551H]

>  <group>
met

$$$$
>  <residueSequence>
YHIDHYLGKEM [G6PD_Y202_R198H]

>  <group>
not met

$$$$
>  <residueSequence>
DHFNQYEQQKM [CHD7_Y75_YF]

>  <group>
not met

$$$$
>  <residueSequence>
HSDYQYGQRSQ [PKP2_Y168_S169G]

>  <group>
met

$$$$
>  <residueSequence>
ANNEFYFQVCA

>  <group>
not met

$$$$
